Catalogue of binding ratio vs parent P54AR4-83v2 readings, one per entry.
# System Tested: EGFR (form in the assay not stated) (human, UniProt P00533 25-645, limits assumed)
# Assay Method Text: ELISA, NEM conjugate 500 nM

| Binder | Quantity Unit | binding ratio vs parent P54AR4-83v2 |
| --- | --- | --- |
| P54AR4-83v2 G51C, NEM conjugate (designed binder, NEM on Cys 51, His-tagged) LPAPKNLVVSEVTEDSARLSWDDPWAFYESFLIQYQESEKVGEAIVLTVPCSERSYDLTGLKPGTEYTVSIYGVHNVYKDTNMRGLPLSAIFTT | ratio | 0.92 |
| P54AR4-83v2 E14C, NEM conjugate (designed binder, NEM on Cys 14, His-tagged) LPAPKNLVVSEVTCDSARLSWDDPWAFYESFLIQYQESEKVGEAIVLTVPGSERSYDLTGLKPGTEYTVSIYGVHNVYKDTNMRGLPLSAIFTT | ratio | 1.15 |
